# Test system: Viola tricolor
# test_protocol: Post-emergence herbicidal effect
# Assay type: in vivo
# measurement_setup: 80 g/ha, assessed visually after about 3 weeks vs untreated controls
So I've got a bunch of compounds here, and I need their post-emergence efficacy VIOTR values.
Your answer should be a plain number; it is taken to be in %.

// query Reported post-emergence efficacy VIOTR, compound Cc1cc2c(s1)CCCC2Nc1ncc(-c2cccc(F)c2)c(N)n1 (racemic) : ____
// result 80

// query Could you tell me which post-emergence efficacy VIOTR is on file for Cc1cc2c(s1)CCCC2Nc1ncc(C(F)(F)F)c(N)n1 (racemic) [compound 11] ?
// result 100

// query // returns reported post-emergence efficacy VIOTR for input Nc1nc(NC2CCc3ccsc32)ncc1C(F)(F)F (racemic)
// result 80

// query Look at this compound and give its reported post-emergence efficacy VIOTR. CS(=O)(=O)c1cnc(NC2CCc3cc(Cl)sc32)nc1N (racemic)
// result 90

// query Value lookup for post-emergence efficacy VIOTR; key = Cc1cc2c(s1)CCCC2Nc1ncc(C(F)(F)F)c(N)n1 (racemic) [compound 257]
// result 90

// query Please report the recorded post-emergence efficacy VIOTR for C/C(=N/OCc1ccccc1)c1cnc(NC2CCCc3sc(C)cc32)nc1N (racemic) .
// result 80

// query Please report the recorded post-emergence efficacy VIOTR for C/C(=N\OC(C)C)c1cnc(NC2CCCc3sc(C)cc32)nc1N (racemic) .
// result 70

// query # query: post-emergence efficacy VIOTR of entry `Cc1cc2c(s1)CCC[C@H]2Nc1ncc(C(F)(F)F)c(N)n1`
// result 100

// query Field request: post-emergence efficacy VIOTR | item: Cc1cc2c(s1)CCCC2Nc1ncc(-c2ccccc2)c(N)n1 (racemic)
// result 70

// query post-emergence efficacy VIOTR value for entry Cc1cc2c(s1)CCCC2Nc1ncc2c(n1)CCCC2=O (racemic)
// result 80

// query What value of post-emergence efficacy VIOTR has been reported for the following compound? CC(=O)c1cnc(NC2CCCc3sc(C)cc32)nc1N (racemic) [compound 150]
// result 80

// query Quick one: post-emergence efficacy VIOTR of CC(=O)c1cnc(NC2CCCc3sc(C)cc32)nc1N (stereo not drawn) [compound 283] ?
// result 90

// query Consider the compound `Cc1cc2c(s1)CCC[C@H]2Nc1ncc(I)c(N)n1` and give its measured post-emergence efficacy VIOTR.
// result 90

// query Need post-emergence efficacy VIOTR, item Cc1sc2c(c1C)C(Nc1ncc(C(F)(F)F)c(N)n1)CCC2 (stereo not drawn)
// result 90

// query Item under review: Cc1cc2c(s1)CCC2Nc1ncc(S(=O)(=O)C(C)C)c(N)n1 (racemic) . Reported post-emergence efficacy VIOTR?
// result 90

// query Fill in the blank: the reported post-emergence efficacy VIOTR of Cc1cc2c(s1)CCCC2Nc1nc(N)c([S+](C)[O-])c(Cl)n1 (racemic) is ____.
// result 80

// query Would you kindly share the measured post-emergence efficacy VIOTR for Cc1cc2c(s1)CCCC2Nc1ncc(C#N)c(N)n1 (racemic) [compound 52] ?
// result 90

// query # lookup: post-emergence efficacy VIOTR of CC(=O)c1cnc(NC2CCCc3sccc32)nc1N (stereo not drawn)
// result 80

// query Looking for the measured post-emergence efficacy VIOTR of C=C(c1cnc(NC2CCCc3sc(C)cc32)nc1N)C(F)(F)F (racemic) , can you help?
// result 70

// query I am curious: what post-emergence efficacy VIOTR value has been reported for Cc1cc2c(s1)CCCC2Nc1nc(N)c(S(C)(=O)=O)c(C(F)(F)F)n1 (racemic) ?
// result 80

// query Look up post-emergence efficacy VIOTR: CN=C(C)c1cnc(NC2CCCc3sc(C)cc32)nc1N (stereo not drawn)
// result 80

// query Given the entry CNC(=O)c1cnc(NC2CCCc3sc(C)cc32)nc1N (racemic) , report its measured post-emergence efficacy VIOTR.
// result 80

// query Recorded post-emergence efficacy VIOTR for Cc1cc2c(s1)CCCC2Nc1ncc(C(F)(F)F)c(N)n1 (racemic) [compound 61] , please?
// result 90

// query # lookup: post-emergence efficacy VIOTR of Cc1cc2c(s1)C(Nc1ncc(C(F)(F)F)c(N)n1)CCC2 (racemic)
// result 90

// query Given the compound CC(=NO)c1cnc(NC2CCCc3sc(C)cc32)nc1N (racemic) [compound 341] , what is its reported post-emergence efficacy VIOTR?
// result 90

// query Report post-emergence efficacy VIOTR for CC(=NO)c1cnc(NC2CCCc3sc(C)cc32)nc1N (stereo not drawn) [compound 286] please.
// result 90

// query Please report the recorded post-emergence efficacy VIOTR for CS(=O)(=O)c1cnc(NC2CCc3ccsc32)nc1N (stereo not drawn) .
// result 80

// query Quick one: post-emergence efficacy VIOTR of CS(=O)(=O)c1cnc(NC2CCCc3sccc32)nc1N (racemic) ?
// result 80

// query Please report the recorded post-emergence efficacy VIOTR for Nc1nc(NC2CCc3cc(Cl)sc32)ncc1C(F)(F)F (racemic) .
// result 80

// query Which post-emergence efficacy VIOTR is listed for CS(=O)(=O)c1cnc(NC2CCCc3ccsc32)nc1N (racemic) ?
// result 80

// query Look up post-emergence efficacy VIOTR: C/C(=N\O)c1cnc(NC2CCCc3sc(Cl)cc32)nc1C (racemic)
// result 70

// query For the compound shown here, `Nc1nc(N[C@@H]2CCCc3sccc32)ncc1C(F)(F)F` , give the reported post-emergence efficacy VIOTR.
// result 80

// query Returns the measured post-emergence efficacy VIOTR for the input compound. Input: Cc1cc2c(s1)CCCC2Nc1ncc(C#N)c(N)n1 (stereo not drawn) [compound 282]
// result 100

// query Return reported post-emergence efficacy VIOTR; argument: Cc1cc2c(s1)CCCC2Nc1ncc(-c2cncc(C(F)(F)F)c2)c(N)n1 (racemic)
// result 60

// query Which post-emergence efficacy VIOTR is reported for this compound? `CS(=O)(=O)c1cnc(N[C@@H]2CCCc3sccc32)nc1N`
// result 90

// query Requested field: post-emergence efficacy VIOTR. Item: Cc1cc2c(s1)CCCC2Nc1nc(N)c(-c2cccc(F)c2)c(C(F)F)n1 (racemic)
// result 90

----------
# Tested on: Matricaria inodora
# test_protocol: Pre-emergence herbicidal effect
# Format: in vivo
# measurement_setup: Dosage 80 g/ha, scored visually after 3 weeks
# Excerpt: Seeds of monocotyledonous and dicotyledonous weed plants and crop plants are laid out in wood-fiber pots in sandy loam and covered with soil. […] After the treatment, the pots are placed in a greenhouse and kept under good growth conditions for the trial plants. The damage to the test plants is scored visually after a test period of 3 weeks by comparison with untreated controls (herbicidal activity in percent (%): 100% activity=the plants have died, 0% activity=like control plants). […]
property_label: MATIN pre-emergence efficacy (herbicidal activity) (%)
Give the value in % but do not write % after it.

// query Could you tell me which MATIN pre-emergence efficacy (herbicidal activity) is on file for CS(=O)(=O)c1cnc(NC2CCc3ccsc32)nc1N (stereo not drawn) ?
// result 100

// query Entry under review: `O=S1(=O)CCCc2nc(N[C@@H]3CCCc4sccc43)ncc21` . Reported MATIN pre-emergence efficacy (herbicidal activity)?
// result 100

// query Would you kindly share the measured MATIN pre-emergence efficacy (herbicidal activity) for CC(=NO)c1cnc(NC2CCCc3sc(C)cc32)nc1N (racemic) [compound 341] ?
// result 100

// query Bench note: what MATIN pre-emergence efficacy (herbicidal activity) did CS(=O)(=O)c1cnc(NC2CCc3cc(Cl)sc32)nc1N (racemic) show?
// result 90

// query Bench note: what MATIN pre-emergence efficacy (herbicidal activity) did Cc1cc2c(s1)CCCC2Nc1ncc(-c2cncc(C(F)(F)F)c2)c(N)n1 (racemic) show?
// result 90

// query Item under review: Cc1sc2c(c1C)C(Nc1ncc(C(F)(F)F)c(N)n1)CCC2 (stereo not drawn) . Reported MATIN pre-emergence efficacy (herbicidal activity)?
// result 100

// query So what's the measured MATIN pre-emergence efficacy (herbicidal activity) for this one? Cc1cc2c(s1)CCCC2Nc1ncc(C#N)c(N)n1 (racemic) [compound 52]
// result 100

// query For CO/N=C(/C)c1cnc(NC2CCCc3sccc32)nc1N (racemic) , what is its reported MATIN pre-emergence efficacy (herbicidal activity)?
// result 80

// query # lookup: MATIN pre-emergence efficacy (herbicidal activity) of `Cc1cc2c(s1)CCC[C@H]2Nc1ncc2c(n1)CCCS2(=O)=O`
// result 100

----------
# System: Setaria viridis
# test_protocol: Post-emergence herbicidal effect
# Type: in vivo
# measurement_setup: 320 g/ha, assessed visually after about 3 weeks vs untreated controls
# From the text: […]
For each of the compounds below, state its post-emergence efficacy SETVI.
Put your answer as a value accompanied by its unit after it.

// query Please tell me: post-emergence efficacy SETVI of `CS(=O)(=O)c1cnc(N[C@@H]2CCCc3sccc32)nc1N` , system Setaria viridis?
// result 80%

// query Query post-emergence efficacy SETVI on Setaria viridis for Nc1nc(NC2CCc3cc(Cl)sc32)ncc1C(F)(F)F (racemic)
// result 90%

// query Given the entry Cc1cc2c(s1)CCCC2Nc1ncc(C(F)(F)F)c(N)n1 (racemic) [compound 11] , what post-emergence efficacy SETVI was observed with Setaria viridis?
// result 90%

// query Identify the measured post-emergence efficacy SETVI of Cc1cc2c(s1)CCCC2Nc1ncc(S(C)(=O)=O)c(N)n1 (racemic) for Setaria viridis.
// result 90%

// query Hi! What's the reported post-emergence efficacy SETVI for Cc1cc2c(s1)CCCC2Nc1ncc(C(N)=O)c(N)n1 (racemic) on Setaria viridis?
// result 60%

// query Provide value of post-emergence efficacy SETVI for this record tested with Setaria viridis: Cc1cc2c(s1)CC(C)C2Nc1ncc(S(C)(=O)=O)c(N)n1 (racemic)
// result 100%

// query Test system Setaria viridis; read-out post-emergence efficacy SETVI; what value for C/C(=N/OCc1ccccc1)c1cnc(NC2CCCc3sc(C)cc32)nc1N (racemic) ?
// result 80%

// query Checklist item: post-emergence efficacy SETVI tested on Setaria viridis, entry Cc1cc2c(s1)CCCC2Nc1nc(N)c(Br)c(C(F)F)n1 (racemic) [compound 284] , value?
// result 100%

// query Hi! What's the reported post-emergence efficacy SETVI for `Cc1cc2c(s1)CCC[C@H]2Nc1ncc(C(F)(F)F)c(N)n1` on Setaria viridis?
// result 90%

// query Give recorded post-emergence efficacy SETVI with Setaria viridis for the following compound: C=C(c1cnc(NC2CCCc3sc(C)cc32)nc1N)C(F)(F)F (racemic)
// result 80%
